test system: SK-MEL-2; test: NCI tumour cell line growth inhibition, 48 h
Active and inactive are the calls of the source. No stated cut-off is given here; in the data, active = GI50 up to about 1.1 µM and inactive = higher.
Select the matching outcome among active, inactive

Check out these entries, answers already filled in.
compound	cat
CCn1cc(/C=C/C(C)c2cn(CC)c(=O)[nH]c2=O)c(=O)[nH]c1=O (configuration not stated)	inactive
COC(=O)c1c(C#C[Si](C)(C)C)c(C#C[Si](C)(C)C)c(C#C[Si](C)(C)C)c(C#C[Si](C)(C)C)c1C(=O)OC	inactive

Please state the recorded outcome for this compound: COc1ccccc1NC(=S)NN=C(C)c1cccc(C(C)=NNC(=S)Nc2ccccc2OC)n1
inactive

Also need COc1ccc(OC)c(NC(=O)C2=C(C)NC(C)=C(C(=O)Nc3cc(OC)ccc3OC)C2c2ccccc2)c1 , thanks.
inactive

What do we get for c1ccc(/N=C2\c3ccccc3C3=NCCCN32)cc1 ?
inactive

Please answer likewise for O=c1[nH]c(=O)c2c([nH]1)[nH]c1ccc(Br)cc12
inactive

Same thing, different compound: O=c1[nH]cc(COCCO)c(=O)[nH]1
inactive

What about O=c1[nH]c(=O)n(COCCOCc2ccccc2)cc1Nc1ccccc1 ?
inactive

What about Cc1cc(Cl)cc2c1NC(=O)C2=O.O=C(c1ccccc1)C(F)(F)F ?
inactive

Repeat with COC1=CC(=O)C(O)=C(C[C@@]2(C)[C@@H]3CCC[C@H](COC(=O)CCCCCNC(=O)OC(C)(C)C)[C@@]3(C)CC[C@@H]2C)C1=O
inactive

Can you check O=C1CSC(C(/N=N/c2ccccc2)=C2Nc3ccccc3N2)=N1 next?
inactive

Here is the next compound: C=CCNC1=C2C[C@@H](C)C[C@@H](OC)C(OC(=O)CCCN(C)C)[C@H](C)/C=C(\C)[C@@H](OC(N)=O)[C@H](OC)/C=C\C=C(/C)C(=O)NC(=CC1=O)C2=O (some centres not stated)
inactive

Entry to check: CC1=C(C(=O)CC(=O)C(=O)Nc2cccc(C)c2C)Sc2ccccc2N1
inactive

Please do the same for CC[C@H](C)C1=C(O)[N@+]2([O-])Oc3ccc(-c4c(O)c(O)c(-c5ccc(OC(C)=O)cc5)c(OC(C)=O)c4OC(C)=O)cc3O[C@]2([C@@H](C)CC)C(=O)N1O as well.
inactive

Next compound: CCOC(=O)/C=C(/C(=O)OCC)n1cc(C)c(=O)n(Cc2cnnn2COCCOC(C)=O)c1=O
inactive

---

tested on: NCI-H522; test: NCI tumour cell line growth inhibition, 48 h
The source made the active and inactive calls. No stated cut-off is given here; in the data, active = GI50 up to about 1.1 µM and inactive = higher.
In this exercise, the only acceptable responses are 1 (yes) (active), 0 (no) (inactive)

Take a look at these entries with their results.
compound	target.desc	cat
CCC1C(=O)OCc2c1cc1n(c2=O)Cc2cc3ccccc3nc2-1 (stereo not drawn)	NCI-H522	0 (no)
CCCCCCCCCCCCCS(=O)(=O)NCC(N)=O	NCI-H522	0 (no)
Cn1c2ccc(Cl)cc2c2ccc3c(c21)C(=O)C=CC3=O	NCI-H522	0 (no)
COc1cc(C=C2N=C(c3ccccc3)N(n3c(-c4ccccc4)nc4ccccc4c3=O)C2=O)cc(OC)c1OC	NCI-H522	0 (no)
Cc1c(N)nc([C@H](CC(N)=O)NC[C@H](N)C(N)=O)nc1C(=O)N[C@H](C(=O)N[C@H](C)[C@@H](O)[C@H](C)C(=O)N[C@H](C(=O)NCCc1nc(-c2nc(C(=O)NCCC[S+](C)C)cs2)cs1)[C@@H](C)O)C(OC1OC(CO)C(O)C(O)C1OC1OC(CO)C(O)C(OC(N)=O)C1O)c1c[nH]cn1 (stereo partly drawn)	NCI-H522	1 (yes)
O=c1c(Cc2ccccc2)c(O)cc2n1CCC2	NCI-H522	0 (no)
C=CCC1(CN(C)C)CC/C(=C\c2cc(OC)c(OC)c(OC)c2)C1=O (stereo not drawn)	NCI-H522	0 (no)
O=C(c1ccccc1)c1c(C(=O)c2ccccc2)c(-c2ccccc2)c2c(-c3ccccc3)sc(-c3ccccc3)c2c1-c1ccccc1	NCI-H522	0 (no)

Identify the outcome logged in this assay for the compound shown: O=S1(=O)C[C@H](O)[C@H](O)CS1
0 (no)

What do you get for Cc1ccccc1C1=[N+]([O-])c2ccccc2C1=O ?
0 (no)

Request: COC(=O)/C(=C\Nc1cccc(C)n1)S(=O)(=O)c1ccc(C)cc1
0 (no)

Also COc1ccc2c(c1)[n+]([O-])c(-c1ccc(Cl)c(Cl)c1)c(N)[n+]2[O-] ?
0 (no)

Note, next up: Cc1cc(C)nc(NS(=O)(=O)c2ccc(Nc3c4ccc(Cl)cc4nc4c(C(=O)Nc5ccc(S(N)(=O)=O)cc5)cccc34)cc2)n1
0 (no)
